# ASSAY SUMMARY: Metabolic stability, liver microsomes
# Format: in vitro ADME
# ASSAY SETUP: Dog, 37 °C, read-out: Liver microsomes t1/2 (converted)
REPORTED ENDPOINT: half-life at 1 µM

What the record says about CC(C)n1c(C2CCNCC2)nc2c([N+](=O)[O-])c(Br)c(Br)cc21 : half-life at 1 µM is 7.6 h

###

# EXPERIMENTAL SYSTEM: PIM1 (Homo sapiens, UniProt P11309)
# Sequence (P11309 whole entry): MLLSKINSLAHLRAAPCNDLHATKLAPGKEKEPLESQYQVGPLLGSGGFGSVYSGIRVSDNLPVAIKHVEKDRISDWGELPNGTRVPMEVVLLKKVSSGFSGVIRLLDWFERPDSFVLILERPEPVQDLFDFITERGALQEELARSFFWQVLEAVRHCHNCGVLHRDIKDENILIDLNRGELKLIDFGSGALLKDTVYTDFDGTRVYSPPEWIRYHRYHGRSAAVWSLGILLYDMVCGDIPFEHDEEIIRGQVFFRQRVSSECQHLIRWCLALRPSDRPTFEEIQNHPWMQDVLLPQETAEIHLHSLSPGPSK
# ASSAY SUMMARY: KINOMEscan Kd (DiscoverX)
# Assay type: binding
REPORTED ENDPOINT: pKd
# log scale: pKd equals minus log10 of the concentration in mol/L

Recorded pKd (molecule CC(C)n1c(C2CCNCC2)nc2c([N+](=O)[O-])c(Br)c(Br)cc21 ): 8.70
